Data credit: ChEMBL document CHEMBL5344434

assay: Selectivity index, ratio for cytotoxicity against african green monkey Vero E6 cells after 24 hrs to antiviral activity against SARS-CoV-2 2019-nCoV Muc-IMB-1 infected in Vero E6 cells pre-infected with virus for 1 hr followed by compound addition and measured after 24 hrs post infection; assay type: toxicity, cell-based, Vero C1008; details: read-out: Selectivity Index
So I've got a bunch of compounds here, and I need their selectivity ratio at 24 h values.
Give bare numbers.

Example compounds with recorded selectivity ratio at 24 h:
>>> observed_value("COC(=O)[C@H]1[C@@H](O)[C@@]2(O)c3c(Cl)cc(Cl)cc3O[C@@]2(c2ccc(OC)cc2)[C@@H]1c1ccccc1 (racemic)")
9
>>> observed_value("COC(=O)[C@H]1[C@@H](O)[C@@]2(O)c3c(OC)cc(Br)cc3O[C@@]2(c2ccc(OC)cc2)[C@@H]1c1ccccc1 (racemic)")
29.5

Measured selectivity ratio at 24 h of CONC(=O)[C@H]1[C@@H](O)[C@@]2(O)c3c(Cl)cc(Br)cc3O[C@@]2(c2ccc(OC)cc2)[C@@H]1c1ccccc1 (racemic) : 19.5

###

Provide the recorded selectivity ratio at 24 h for the entries that follow.
test: Selectivity index, ratio for cytotoxicity against human HepG2 cells after 24 hrs to antiviral activity against HEV Kernow-C1 infected in gaussia luciferase transfected HepG2 cells pre-infected with virus for 4 hrs followed by compound addition and measured after 24 hrs post infection; assay type: toxicity, cell-based; conditions: read-out: Selectivity Index
Answers are plain numbers.

>>> observed_value("COC(=O)[C@H]1[C@@H](O)[C@@]2(O)c3c(Br)cc(Cl)cc3O[C@@]2(c2ccc(OC)cc2)[C@@H]1c1ccccc1 (racemic)")
19
>>> observed_value("COC(=O)[C@H]1[C@@H](O)[C@@]2(O)c3c(F)cc(OC)cc3O[C@@]2(c2ccc(OC)cc2)[C@@H]1c1ccccc1 (racemic)")
30.4

Reported selectivity ratio at 24 h for COC(=O)[C@H]1[C@@H](O)[C@@]2(O)c3c(OC)cc(F)cc3O[C@@]2(c2ccc(OC)cc2)[C@@H]1c1ccccc1 (racemic) was 1

###

test system: Hepatitis E virus; assay: Antiviral activity against HEV Kernow-C1 infected in gaussia luciferase transfected HepG2 cells assessed as reduction in viral replication pre-infected with virus for 4 hrs followed by compound addition and measured after 48 hrs post infection by luminometer analysis; format: functional, organism-based; settings: time 44 hrs
measured quantity: EC90

>>> observed_value("CONC(=O)[C@H]1[C@@H](O)[C@@]2(O)c3c(Br)cc(Cl)cc3O[C@@]2(c2ccc(OC)cc2)[C@@H]1c1ccccc1 (racemic)")
"0.0629 µM"
>>> observed_value("CONC(=O)[C@H]1[C@@H](O)[C@@]2(O)c3c(OC)cc(OC)cc3O[C@@]2(c2ccc(Cl)cc2)[C@@H]1c1ccccc1 (racemic)")
"0.0182 µM"
>>> observed_value("CONC(=O)[C@H]1[C@@H](O)[C@@]2(O)c3c(OC)cc(OC)cc3O[C@@]2(c2ccc(F)cc2)[C@@H]1c1ccccc1 (racemic)")
"0.338 µM"

We now examine a further compound.
Per the records, this compound ( CONC(=O)[C@H]1[C@@H](O)[C@@]2(O)c3c(OC)cc(OC)cc3O[C@@]2(c2ccc(OC)cc2)[C@@H]1c1ccccc1 (racemic) ) has EC90 equal to 0.0273 µM

###

system: Vero C1008; assay: Cytotoxicity against african green monkey Vero E6 cells after 48 hrs by MTT assay; type: toxicity, cell-based; conditions: chlorocebus sabaeus, vero c1008, 48 h
measured quantity: CC50 (nM)
One number for each entry, in nM.

For CONC(=O)[C@H]1[C@@H](O)[C@@]2(O)c3c(Cl)cc(Br)cc3O[C@@]2(c2ccc(OC)cc2)[C@@H]1c1ccccc1 (racemic) on Vero C1008, measured CC50 was 176

###

assay: Selectivity index, ratio for cytotoxicity against african green monkey Vero E6 cells after 24 hrs to antiviral activity against RVFV MP-12 infected in Vero E6 cells pre-infected with virus for 1 hr followed by compound addition and measured after 24 hrs post infection; assay type: toxicity, cell-based, Vero C1008; conditions: read-out: Selectivity Index
I'd appreciate it if you could supply selectivity ratio at 24 h values for the items below.
Numbers only.

Some compounds with recorded selectivity ratio at 24 h:
>>> observed_value("COC(=O)[C@H]1[C@@H](O)[C@@]2(O)c3c(OC)cc(Br)cc3O[C@@]2(c2ccc(OC)cc2)[C@@H]1c1ccccc1 (racemic)")
38.4
>>> observed_value("COC(=O)[C@H]1[C@@H](O)[C@@]2(O)c3c(Cl)cc(Cl)cc3O[C@@]2(c2ccc(OC)cc2)[C@@H]1c1ccccc1 (racemic)")
9.8

Consider now this further compound.
Briefly, selectivity ratio at 24 h measured for CONC(=O)[C@H]1[C@@H](O)[C@@]2(O)c3c(Cl)cc(Br)cc3O[C@@]2(c2ccc(OC)cc2)[C@@H]1c1ccccc1 (racemic) : 23.8

###

assay: Selectivity index, ratio for cytotoxicity against human HepG2 cells after 48 hrs to antiviral activity against HEV Kernow-C1 infected in gaussia luciferase transfected HepG2 cells pre-infected with virus for 4 hrs followed by compound addition and measured after 48 hrs post infection; assay type: toxicity, cell-based; conditions: read-out: Selectivity Index
Field 'label' (enum: Fulfilled / Not fulfilled). Set to Fulfilled when selectivity ratio at 48 h is strictly under 4; else Not fulfilled.

Consider the following illustrative entries.
>>> group_label("COc1ccc([C@@]23Oc4cc(OC)cc(OC)c4[C@]2(O)[C@H](O)[C@H](C(=O)N(C)C)[C@H]3c2ccccc2)cc1 (racemic) [ROCAGLAMIDE]")
"Fulfilled"
>>> group_label("COC(=O)[C@H]1[C@@H](O)[C@@]2(O)c3c(F)cc(F)cc3O[C@@]2(c2ccc(OC)cc2)[C@@H]1c1ccccc1 (racemic)")
"Fulfilled"
>>> group_label("CONC(=O)[C@H]1[C@@H](O)[C@@]2(O)c3c(OC)cc(OC)cc3O[C@@]2(c2ccc(OC)cc2)[C@@H]1c1ccccc1 (racemic)")
"Fulfilled"
>>> group_label("CONC(=O)[C@H]1[C@@H](O)[C@@]2(O)c3c(F)cc(OC)cc3O[C@@]2(c2ccc(OC)cc2)[C@@H]1c1ccccc1 (racemic)")
"Fulfilled"

Please determine if COC(=O)[C@H]1[C@@H](O)[C@@]2(O)c3c(Cl)cc(OC)cc3O[C@@]2(c2ccc(OC)cc2)[C@@H]1c1ccccc1 (racemic) is below 4 in terms of selectivity ratio at 48 h.
Fulfilled

Lab note: selectivity ratio at 48 h threshold 4. Does this molecule come in strictly under it? COC(=O)[C@H]1[C@@H](O)[C@@]2(O)c3c(Br)cc(OC)cc3O[C@@]2(c2ccc(OC)cc2)[C@@H]1c1ccccc1 (racemic)
Fulfilled

Input CONC(=O)[C@H]1[C@@H](O)[C@@]2(O)c3c(Cl)cc(Br)cc3O[C@@]2(c2ccc(OC)cc2)[C@@H]1c1ccccc1 (racemic) ; condition: selectivity ratio at 48 h strictly below 4. Does it hold?
Not fulfilled

# TODO verify selectivity ratio at 48 h < 4 strictly for this molecule: COc1ccc([C@@]23Oc4cc(OC)cc(F)c4[C@]2(O)[C@H](O)[C@H](C(=O)N(C)C)[C@H]3c2ccccc2)cc1 (racemic)
Fulfilled

Is selectivity ratio at 48 h of COCOc1cc(F)c2c(c1)O[C@@]1(c3ccc(OC)cc3)[C@H](c3ccccc3)[C@@H](C(=O)OC)[C@@H](O)[C@@]21O (racemic) strictly below 4?
Fulfilled

Dear reviewer, please state whether COC(=O)[C@H]1[C@@H](O)[C@@]2(O)c3c(Cl)cc(Cl)cc3O[C@@]2(c2ccc(OC)cc2)[C@@H]1c1ccccc1 (racemic) has selectivity ratio at 48 h strictly beneath 4.
Not fulfilled

I'd appreciate it if you could check whether COC(=O)[C@H]1[C@@H](O)[C@@]2(O)c3c(OC)cc(F)cc3O[C@@]2(c2ccc(OC)cc2)[C@@H]1c1ccccc1 (racemic) has selectivity ratio at 48 h smaller than 4.
Fulfilled

Determine whether this molecule shows selectivity ratio at 48 h lower than 4 (ties excluded): COC(=O)[C@H]1[C@@H](O)[C@@]2(O)c3c(F)cc(OC)cc3O[C@@]2(c2ccc(OC)cc2)[C@@H]1c1ccccc1 (racemic)
Fulfilled

Decide: selectivity ratio at 48 h of COC(=O)[C@H]1[C@@H](O)[C@@]2(O)c3c(OC)cc(Cl)cc3O[C@@]2(c2ccc(OC)cc2)[C@@H]1c1ccccc1 (racemic) strictly below 4?
Not fulfilled

Answer whether the molecule COC(=O)[C@H]1[C@@H](O)[C@@]2(O)c3c(Cl)cc(Br)cc3O[C@@]2(c2ccc(OC)cc2)[C@@H]1c1ccccc1 (racemic) has selectivity ratio at 48 h strictly less than 4
Not fulfilled

Determine if CONC(=O)[C@H]1[C@@H](O)[C@@]2(O)c3c(Cl)cc(Cl)cc3O[C@@]2(c2ccc(OC)cc2)[C@@H]1c1ccccc1 (racemic) shows selectivity ratio at 48 h strictly lower than 4.
Fulfilled

Does this molecule meet the criterion selectivity ratio at 48 h < 4? COc1cc(OC)c2c(c1)O[C@@]1(c3ccc(Cl)cc3)[C@H](c3ccccc3)[C@@H](C(=O)N(C)C)[C@@H](O)[C@@]21O (racemic)
Fulfilled

Does this molecule meet the criterion selectivity ratio at 48 h < 4? COC(=O)[C@H]1[C@@H](O)[C@@]2(O)c3c(Cl)cc(Cl)cc3O[C@@]2(c2ccc(Br)cc2)[C@@H]1c1ccccc1 (racemic)
Fulfilled

Quick check: selectivity ratio at 48 h of CONC(=O)[C@H]1[C@@H](O)[C@@]2(O)c3c(OC)cc(OC)cc3O[C@@]2(c2ccc(F)cc2)[C@@H]1c1ccccc1 (racemic) under 4?
Fulfilled

I wonder whether COC(=O)[C@H]1[C@@H](O)[C@@]2(O)c3c(Br)cc(Cl)cc3O[C@@]2(c2ccc(OC)cc2)[C@@H]1c1ccccc1 (racemic) has selectivity ratio at 48 h below 4. Can you tell?
Fulfilled

Lab note: confirm whether the reported selectivity ratio at 48 h for this molecule is below 4, equality not counting. molecule: CONC(=O)[C@H]1[C@@H](O)[C@@]2(O)c3c(OC)cc(OC)cc3O[C@@]2(c2ccc(Cl)cc2)[C@@H]1c1ccccc1 (racemic)
Not fulfilled

Dear reviewer, please state whether COC(=O)[C@H]1[C@@H](O)[C@@]2(O)c3c(OC)cc(OC)cc3O[C@@]2(c2ccc(F)cc2)[C@@H]1c1ccccc1 (racemic) has selectivity ratio at 48 h strictly beneath 4.
Fulfilled

Identify whether the molecule COC(=O)[C@H]1[C@@H](O)[C@@]2(O)c3c(OC)cc(OC)cc3O[C@@]2(c2ccc(Cl)cc2)[C@@H]1c1ccccc1 (racemic) records selectivity ratio at 48 h below 4.
Fulfilled

Lab note: selectivity ratio at 48 h threshold 4. Does this molecule come in strictly under it? COc1cc(OC)c2c(c1)O[C@@]1(c3ccc(F)cc3)[C@H](c3ccccc3)[C@@H](C(=O)N(C)C)[C@@H](O)[C@@]21O (racemic)
Fulfilled

selectivity ratio at 48 h strictly < 4 for this molecule? CONC(=O)[C@H]1[C@@H](O)[C@@]2(O)c3c(Br)cc(Cl)cc3O[C@@]2(c2ccc(OC)cc2)[C@@H]1c1ccccc1 (racemic)
Not fulfilled

Please indicate whether the reported selectivity ratio at 48 h of COC(=O)[C@H]1[C@@H](O)[C@@]2(O)c3c(OC)cc(O[C@@H]4O[C@@H]([C@H](O)CO)CO[C@H]4OC)cc3O[C@@]2(c2ccc(OC)cc2)[C@@H]1c1ccccc1 [SILVESTROL] is strictly below 4.
Not fulfilled
